# Assay: Half life in BALB/c mouse at 10 mg/kg, po measured upto 24 hrs by LC/MS-MS analysis
# Assay type: ADME, organism-based
# Experimental Context: in vivo
Recorded Metric: half-life (h)

[in] half-life lookup needed for CC1(C)CC[C@]2(C(=O)OCc3ccccc3)CC[C@]3(C)C(=CC[C@@H]4[C@@]5(C)Cc6c(C(=O)O)noc6[C@@](C)(COC(=O)CCC(=O)N6CCOCC6)[C@@H]5CC[C@]43C)[C@@H]2C1 , thanks.
[out] 4.49

[in] So what does the record say about half-life for CCOC(=O)c1noc2c1C[C@@]1(C)[C@@H](CC[C@]3(C)[C@@H]1CC=C1[C@@H]4CC(C)(C)CC[C@]4(C(=O)OCc4ccccc4)CC[C@]13C)[C@]2(C)COC(=O)CCC(=O)N1CCOCC1 ?
[out] 5.42

[in] Tell me the measured half-life of CCOC(=O)c1noc2c1C[C@@]1(C)[C@@H](CC[C@]3(C)[C@@H]1CC=C1[C@@H]4CC(C)(C)CC[C@]4(C(=O)OCc4ccccc4)CC[C@]13C)[C@]2(C)CO , please.
[out] 4.85

[in] Would you mind telling me what half-life value was observed for CC1(C)CC[C@]2(C(=O)OCc3ccccc3)CC[C@]3(C)C(=CC[C@@H]4[C@@]5(C)Cc6c(C(=O)O)noc6[C@@](C)(CO)[C@@H]5CC[C@]43C)[C@@H]2C1 ?
[out] 5.54

Where these numbers come from: ChEMBL document CHEMBL6121038
